# target.desc: PI3K beta (Homo sapiens, UniProt P42338)
# Construct: for the full-length p110-b subunit are generated and fused by overlapping PCR; p85(iSH2) fusion partner (see partner chain) (N); His tag (C); Tn5 (Trichoplusia ni) or TiniPro insect cells
# Sequence (P42338 with tags, fused parts or gaps limits assumed): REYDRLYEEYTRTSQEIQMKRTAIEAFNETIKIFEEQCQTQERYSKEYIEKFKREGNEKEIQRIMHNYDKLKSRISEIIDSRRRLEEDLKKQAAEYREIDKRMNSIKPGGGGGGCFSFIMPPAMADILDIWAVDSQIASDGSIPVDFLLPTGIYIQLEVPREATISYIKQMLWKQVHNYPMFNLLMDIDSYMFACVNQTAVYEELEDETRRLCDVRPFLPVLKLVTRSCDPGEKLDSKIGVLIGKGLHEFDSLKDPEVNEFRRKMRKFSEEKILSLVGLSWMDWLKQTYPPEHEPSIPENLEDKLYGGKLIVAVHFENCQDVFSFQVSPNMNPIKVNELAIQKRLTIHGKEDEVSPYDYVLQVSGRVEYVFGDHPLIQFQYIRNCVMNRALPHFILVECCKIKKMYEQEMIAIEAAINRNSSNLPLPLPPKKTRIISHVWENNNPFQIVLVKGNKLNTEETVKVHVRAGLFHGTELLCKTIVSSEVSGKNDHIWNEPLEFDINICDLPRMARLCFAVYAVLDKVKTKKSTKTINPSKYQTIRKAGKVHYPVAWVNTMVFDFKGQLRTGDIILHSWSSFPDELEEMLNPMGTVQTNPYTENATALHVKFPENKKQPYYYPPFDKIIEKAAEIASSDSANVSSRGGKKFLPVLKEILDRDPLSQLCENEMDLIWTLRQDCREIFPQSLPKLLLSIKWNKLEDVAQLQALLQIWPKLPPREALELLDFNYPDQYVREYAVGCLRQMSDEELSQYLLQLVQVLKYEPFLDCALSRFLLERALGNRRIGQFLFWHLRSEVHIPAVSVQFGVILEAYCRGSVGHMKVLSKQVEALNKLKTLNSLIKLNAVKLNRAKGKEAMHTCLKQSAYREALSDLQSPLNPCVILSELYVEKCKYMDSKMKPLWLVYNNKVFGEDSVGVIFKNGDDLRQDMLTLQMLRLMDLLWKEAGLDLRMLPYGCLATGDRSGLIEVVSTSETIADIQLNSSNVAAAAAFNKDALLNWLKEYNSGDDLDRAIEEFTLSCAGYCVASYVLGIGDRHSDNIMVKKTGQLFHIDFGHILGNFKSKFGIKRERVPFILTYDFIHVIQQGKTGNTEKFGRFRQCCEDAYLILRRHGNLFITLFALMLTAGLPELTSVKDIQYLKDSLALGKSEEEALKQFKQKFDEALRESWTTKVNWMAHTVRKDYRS
# experiment.description: PI3K beta kinase assay (Kinase-Glo luminescence)
measure: IC50 (nM)

Illustrative cases are given below, each with its answer.
Cc1cc(-n2c(=O)n(C)c3cnc4ccc(-c5cnc(N)c(C(F)(F)F)c5)cc4c32)n(C)n1 ... 133
Cc1nn(C)cc1-n1c(=O)n(C)c2cnc3ccc(-c4cccc(S(=O)(=O)N5CCCC5)c4)cc3c21 ... 218
Cc1nn(C)cc1-n1c(=O)n(C)c2cnc3ccc(-c4cncc(NC(C)C)c4)cc3c21 ... 18
COc1ccc(-c2ccc3ncc4c(c3c2)n(-c2cn(CC(=O)O)nc2C)c(=O)n4C)cn1 ... 23
COc1ncc(-c2ccc3ncc4c(c3c2)n(-c2cn(C)nc2C)c(=O)n4C)cc1C(=O)O ... 83

(a) Cc1nn(C)cc1-n1c(=O)n(C)c2cnc3ccc(-c4cnc(N(C)C)nc4)cc3c21
(b) COc1cc(-c2ccc3ncc4c(c3c2)n(-c2c(C)nn(C)c2C)c(=O)n4C)ccc1O
(c) CCOc1cncc(-c2ccc3ncc4c(c3c2)n(-c2cn(C)nc2Cl)c(=O)n4C)c1
Query: Rank ascending by IC50. API: response body holds the labels in the requested order.
Reply: c, b, a

(1) CCNc1cc(-c2ccc3ncc4c(c3c2)n(-c2cn(CC)nc2C)c(=O)n4C)cnc1CO
(2) Cc1nn(C)cc1-n1c(=O)n(C)c2cnc3ccc(-c4cnc(N)c(C(=O)NC(C)C)c4)cc3c21
(3) CCOc1ncc(-c2ccc3ncc4c(c3c2)n(-c2cn(C)nc2C)c(=O)n4C)cn1
(4) Cc1nn(C(C)C)cc1-n1c(=O)n(C)c2cnc3ccc(-c4ccc(N(C)C)nc4)cc3c21
Query: Returns the items ordered by IC50, from maximum to minimum. Reply with the item labels sorted in the order that was asked for.
Reply: 4, 3, 2, 1
(4: 762 nM, 3: 343 nM, 2: 44 nM, 1: 17 nM)
